The following molecules are shown together with reported MIC values.
System: Escherichia coli
ASSAY PROTOCOL: Antimicrobial activity against Escherichia coli NRRL B-3708 incubated for 16 to 48 hrs
Type: functional

Example molecules with recorded MIC:
O=C(O)c1cccc2nc3c4c(ccc3nc12)[C@H]1c2nc3c(O)cccc3nc2C[C@@H]4[C@H]1O	> 120 µM
O=C(O)C1(O)O[C@@H]2[C@@H](Cc3nc4c(O)cccc4nc3[C@@H]2O)[C@H]1c1ccc(O)cc1 (stereo partly drawn)	> 120 µM

In: Return reported MIC; argument: O=C(O)c1ccc(O)c2nc3c4c(ccc3nc12)[C@@H]1Cc2nc3cccc(O)c3nc2[C@H](O4)[C@H]1O
Out: > 120 µM
